This collection of values is drawn from PubChem BioAssay (NCI).

system: IGROV1 ovarian; experiment: NCI-60 one-dose screen, 48 h; settings: 10 µM unless noted
This is part of a sample that, as a whole, favours compounds with a hit. Of some 83,000 tested, about 20% had one in any assay. Calls of active or inactive are those of the source. Rule for the calls: active = growth percent below 10; inactive = the rest.
A correct response names exactly one class from T = active, F = inactive

Worked cases, answers included:
[
  {
    "COMPOUND": "C=CCn1c(C)nc2cc(Nc3nc(N4CCCC4)nc4nc[nH]c34)ccc21",
    "ASSIGNED_LABEL": "F"
  },
  {
    "COMPOUND": "CCOCC(O)(c1ccc(Cl)cc1)c1ccc(Cl)cc1",
    "ASSIGNED_LABEL": "F"
  },
  {
    "COMPOUND": "Nc1n[nH]c2ccc([C@@H]3Nc4c(F)cc5[nH]ncc5c4[C@H]4C5CCC(C5)[C@@H]34)cc12 (stereo partly specified)",
    "ASSIGNED_LABEL": "F"
  },
  {
    "COMPOUND": "Cc1[nH]nc2ccc3nc(-c4ccc5[nH]ncc5c4)c4c(c3c12)CCCC4",
    "ASSIGNED_LABEL": "F"
  },
  {
    "COMPOUND": "C/C(=N\\OC(=O)Nc1ccccc1)c1ccccc1",
    "ASSIGNED_LABEL": "F"
  }
]

# lookup: test call for COC(=O)C(CCC(=O)CCl)N1C(=O)c2ccccc2C1=O (stereo unspecified) F

Outcome logged for O=C(CN1CCN(c2ccccc2)CC1)N1CCN(c2nnc(-c3ccc(Cl)cc3)c(-c3ccc(Cl)cc3)n2)CC1 in this assay: F

Please let me know the test result on file for O=c1[nH]c2ccccc2n2cc3cccnc3c12 . F

* * *

Collected growth values appear next to each entry.
test system: OVCAR-3 ovarian; assay: NCI-60 one-dose screen, 48 h (100 = growth as untreated, 0 = no growth, -100 = all killed); conditions: 10 µM unless noted
Compounds without any hit were thinned out: in the full panel of roughly 83,000, 20% have a hit.
Give just the numeric value; % need not be written.

The cases that follow already have their growth on record.
[
  {
    "COMPOUND": "COc1cccc(NC(=O)c2c(-c3ccccc3)c(-c3ccccc3)n[nH]c2=O)c1",
    "growth / %": 107
  },
  {
    "COMPOUND": "CCOc1c(C#N)c2c(N)ncnc2n1C1OC(CO)C(O)C1O (stereo not given)",
    "growth / %": -41.4
  },
  {
    "COMPOUND": "COc1ccc2[nH]c(C(=O)OCc3ccc4cccc(O)c4n3)cc2c1",
    "growth / %": -84.8
  }
]

Write down the reported growth (system: OVCAR-3 ovarian) of Cc1c(-c2ccc(-c3ccccc3F)cc2)nc2ccc(F)cc2c1C(=O)O 55.9

// fetch growth for Cc1ccc(NC(=O)c2[nH]c(SCCN(C)C)nc2-c2ccc(F)cc2)cc1Nc1ccc2ncn(C)c(=O)c2c1 ; system: OVCAR-3 ovarian 78.9

* * *

Reported growth values for a set of compounds
test system: OVCAR-8 ovarian; test: NCI-60 one-dose screen, 48 h (100 = growth as untreated, 0 = no growth, -100 = all killed); conditions: 10 µM unless noted
This is part of a sample that, as a whole, favours compounds with a hit. Of some 83,000 tested, about 20% had one in any assay. Active and inactive are the calls of the source. How the source made its calls: active means growth percent below 10; inactive means the rest.

[
  {
    "COMPOUND": "N#Cc1nc(-c2ccc(Cl)cc2)cc(-c2ccc(Nc3nc(N4CCCCC4)nc(N4CCCCC4)n3)cc2)c1N",
    "TEST_SYSTEM": "OVCAR-8 ovarian",
    "growth": "96.5% (inactive)"
  }
]

Look up growth of COc1cc(NC(C)CCCN)c2ncccc2c1Sc1ccc(Cl)cc1 (configuration not stated) and report it. 33.3% (inactive)

Name the recorded growth of the compound listed here: CC(COC(=O)c1ccccc1)N1CC2CCC(C1)O2 (configuration not stated) 93.9% (inactive)

Supply reported growth belonging to this compound: COc1ccc(/C=C2\Cc3c(Br)cccc3C2=O)c(OC)c1 80.8% (inactive)

For the compound CCN(CC)CCCNc1cccc2c(C)cc(OC)nc12 , give its reported growth. 97.9% (inactive)

Quick one: give measured growth for NC(=O)Nc1ccc2ncnc(Nc3cccc(O)c3)c2c1 98.9% (inactive)

Quote growth reported for COc1ccc(/C=c2\c(=O)n(-c3ccccc3)c3nn4c(=O)c(=O)[nH]nc4n23)cc1 please. 109% (inactive)

Consider the compound O=C1C2=C(C(=O)c3c(O)ccc(O)c31)N(c1ccc(N3CCOCC3)nc1)Cc1ccccc1O2 and give its recorded growth. -10.6% (active)
